Exercise: state measured CC50 at 5 days for each of the compounds provided.
EXPERIMENT: in vitro
ASSAY_SETUP: human, uninfected MT-4 cells
I only need the number, in µM, no unit after it.

Looking up COC1=NO[C@@]2(CC[C@H](C)N3C[C@H]2n2cc(C(=O)NCc4ccc(F)cc4F)c(=O)c(OCOC(=O)OC[C@@H](OP(=O)(O)O)C(C)C)c2C3=O)C1 [Compound 82] , I found its CC50 at 5 days recorded as 39.7

COC1=NO[C@@]2(CC[C@H](C)N3C[C@H]2n2cc(C(=O)NCc4ccc(F)cc4F)c(=O)c(OCOC(=O)OCCOP(=O)(O)O)c2C3=O)C1 [Compound 3] yielded CC50 at 5 days of 13

The compound listed as CC1=NO[C@@]2(CC[C@H](C)N3C[C@H]2n2cc(C(=O)NCc4ccc(F)cc4F)c(=O)c(OCOC(=O)N(C)CCN(CC(=O)O)C(=O)OCOP(=O)(O)O)c2C3=O)C1 [Compound 21] has a reported CC50 at 5 days of 15.2

CC50 at 5 days reading for CC1=NO[C@@]2(CC[C@H](C)N3C[C@H]2n2cc(C(=O)NCc4ccc(F)cc4F)c(=O)c(OCOC(=O)CC(C)(C)CN(CC(=O)O)C(=O)OCOP(=O)(O)O)c2C3=O)C1 [Compound 42] : 10.3

Recorded values, source patent US20250120989A1.
